Tested on: HepG2
experimental.details: Induction of […] uptake in human HepG2 cells at 5 uM by DIL probe based fluorescence assay
Type: functional, cell-based
Active and inactive are the calls of the source. No cut-off for these calls is given here.
Outcomes: T (active), F (inactive)

compound=CC(=O)OC(C)(C)CCC(=O)[C@](C)(O)[C@H]1[C@H](O)C[C@@]2(C)[C@@H]3[C@@H](O)C=C4[C@@H](CC(=O)[C@@H](O)C4(C)C)[C@]3(C)C(=O)C[C@]12C label_value=T
compound=CC(=O)OC(C)(C)CCC(=O)[C@](C)(O)[C@H]1[C@H](O)C[C@@]2(C)[C@@H]3CC=C4[C@@H](C[C@H](OC(=O)CCC(=O)O)C(=O)C4(C)C)[C@]3(C)C(=O)C[C@]12C label_value=F
compound="CC(=O)OC(C)(C)CCC(=O)[C@](C)(O)[C@H]1[C@H](O)C[C@@]2(C)[C@@H]3CC=C4[C@@H](C[C@H](OC5O[C@H](CO)[C@@H](O)[C@H](O)[C@H]5C)C(=O)C4(C)C)[C@]3(C)C(=O)C[C@]12C (stereo partly specified)" label_value=T
compound="CC(C)(O)/C=C/C(=O)[C@](C)(O)[C@H]1[C@H](O)C[C@@]2(C)[C@@H]3CC=C4[C@@H](CC(O)C(=O)C4(C)C)[C@]3(C)C(=O)C[C@]12C (stereo partly specified)" label_value=T
compound=CC(=O)OC(C)(C)CCC(=O)[C@](C)(O)[C@H]1C(=O)C[C@@]2(C)[C@@H]3CC=C4[C@@H](CC(=O)C(=O)C4(C)C)[C@]3(C)C(=O)C[C@]12C label_value=F
compound=CC(C)(O)CCC(=O)[C@](C)(O)[C@H]1[C@H](O)C[C@@]2(C)[C@@H]3CC=C4[C@@H](C[C@H](O)C(=O)C4(C)C)[C@]3(C)C(=O)C[C@]12C label_value=T
compound=CO[C@H](CC(=O)[C@](C)(O)[C@H]1[C@H](O)C[C@@]2(C)[C@@H]3CC=C4[C@@H](C[C@H](O)C(=O)C4(C)C)[C@]3(C)C(=O)C[C@]12C)C(C)(C)O label_value=T
compound=CC(=O)OC(C)(C)CCC(=O)[C@](C)(O)[C@H]1[C@H](O)C[C@@]2(C)[C@@H]3[C@@H](O)C=C4[C@@H](C[C@H](O)C(=O)C4(C)C)[C@]3(C)C(=O)C[C@]12C label_value=T
compound=CC(=O)O[C@H]1C[C@@H]2C(=CC[C@@H]3[C@@]2(C)C(=O)C[C@]2(C)[C@@H]([C@@](C)(O)C(=O)/C=C/C(C)(C)OC(C)=O)[C@H](OC(=O)O)C[C@@]32C)C(C)(C)C1=O label_value=F
compound=CC(=O)OC(C)(C)/C=C/C(=O)[C@](C)(O)[C@H]1[C@H](O)C[C@@]2(C)[C@@H]3[C@@H](O)C=C4[C@@H](C[C@H](O)C(=O)C4(C)C)[C@]3(C)C(=O)C[C@]12C label_value=T
compound=CC(=O)OC(C)(C)CCC(=O)[C@](C)(O)[C@H]1[C@H](O)C[C@@]2(C)[C@@H]3CC=C(C(C)(C)C(=O)O)[C@@H](CC(=O)O)[C@]3(C)C(=O)C[C@]12C label_value=T
